SYSTEM TESTED: recombinant human CCR1 (Homo sapiens, UniProt P32246)
Construct: expressed in transfected cells; membranes prepared from them
Sequence (P32246 whole entry): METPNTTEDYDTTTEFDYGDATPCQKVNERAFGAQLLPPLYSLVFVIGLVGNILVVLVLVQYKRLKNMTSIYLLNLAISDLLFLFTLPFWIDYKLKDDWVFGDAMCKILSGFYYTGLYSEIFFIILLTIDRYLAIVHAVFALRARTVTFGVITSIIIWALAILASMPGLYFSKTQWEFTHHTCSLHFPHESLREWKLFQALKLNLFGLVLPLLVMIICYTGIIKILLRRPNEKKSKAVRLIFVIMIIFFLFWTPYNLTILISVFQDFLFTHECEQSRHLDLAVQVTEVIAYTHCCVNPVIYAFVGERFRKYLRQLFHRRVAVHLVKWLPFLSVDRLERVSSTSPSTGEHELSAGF
ASSAY: Human CCR1 binding assay ([125I] MIP-1α displacement, HEK-CCR1 membranes)
TEST SETTINGS: HEK293 membranes expressing recombinant human CCR1; 33 pM [125I] MIP-1α
pIC50: −log10 of the molar value.
MEASURED PROPERTY: pIC50

Lookup: Could you share what pIC50 was measured for CC(=O)Nc1ccc(O)cc1OC[C@@](C)(O)CNC1CCN(Cc2ccc(Cl)cc2)CC1 [ditrifluoroacetate] , tested on recombinant human CCR1 (Homo sapiens, UniProt P32246)?
Found: > 7.30
